tested on: SNB-75 CNS; assay: NCI tumour cell line growth inhibition, 48 h
outcomeMeasure: TGI

Sample records with TGI:
compound	TGI
C=Cc1nc2c(Cl)ncnc2n1Cc1ccccc1	28.4 µM
CS(=O)(=O)OCCCCOS(=O)(=O)CF	> 100 µM
COc1ccc2c(c1)CC[C@@H]1[C@@H]2CC[C@]2(C)C(=O)/C(=C/c3ccc(N(C)C)cc3)C[C@@H]12	52.3 µM
CSCCCN(CCCSC)CCCSC	> 100 µM
NC(CCCCCCCCCCP(=O)(O)O)C(=O)O (centres undefined)	> 100 µM

Lookup: For the compound shown here, C=CCc1cc(OC)c2c(c1)C(O)CC(c1ccc(OC)c(OC)c1)O2 (centres undefined) , give the reported TGI.
Found: > 100 µM

Lookup: Again, but for `C/C(CCn1[nH]c(=O)ccc1=O)=N\O`
Found: > 100 µM

Lookup: Another compound: C=C1C[C@@H]2CC[C@@]34CC5O[C@H]6C(O[C@H]7CC[C@H](CC(=O)O[C@@H]8[C@@H](C)[C@@H]9O[C@@H]%10C[C@]%11(C[C@@H]%12O[C@]%13(C[C@H](C)[C@@H]%14O[C@@H]%15CC(C(O)CO)O[C@@H]%15C[C@@H]%14O%13)C[C@H](C)[C@@H]%12O%11)O[C@@H]%10C[C@@H]9O[C@H]8CC8O[C@@H](CC[C@@H]1O2)C[C@@H](C)C8(O)CO)O[C@@H]7[C@@H]6O3)[C@H]5O4 (some centres undefined)
Found: > 1 µM

Lookup: Can you handle `CNC(=O)c1ccccc1Nc1nc(Nc2ccc(N3CCOCC3)cc2OC)ncc1Cl` next?
Found: 5.44 µM
